Origin of values: paper doi:10.1101/2023.11.29.569239

biological target: MBP-DDX3Y full-length (UniProt O15523 1-660); experiment: EMSA
Sequence (O15523 whole entry): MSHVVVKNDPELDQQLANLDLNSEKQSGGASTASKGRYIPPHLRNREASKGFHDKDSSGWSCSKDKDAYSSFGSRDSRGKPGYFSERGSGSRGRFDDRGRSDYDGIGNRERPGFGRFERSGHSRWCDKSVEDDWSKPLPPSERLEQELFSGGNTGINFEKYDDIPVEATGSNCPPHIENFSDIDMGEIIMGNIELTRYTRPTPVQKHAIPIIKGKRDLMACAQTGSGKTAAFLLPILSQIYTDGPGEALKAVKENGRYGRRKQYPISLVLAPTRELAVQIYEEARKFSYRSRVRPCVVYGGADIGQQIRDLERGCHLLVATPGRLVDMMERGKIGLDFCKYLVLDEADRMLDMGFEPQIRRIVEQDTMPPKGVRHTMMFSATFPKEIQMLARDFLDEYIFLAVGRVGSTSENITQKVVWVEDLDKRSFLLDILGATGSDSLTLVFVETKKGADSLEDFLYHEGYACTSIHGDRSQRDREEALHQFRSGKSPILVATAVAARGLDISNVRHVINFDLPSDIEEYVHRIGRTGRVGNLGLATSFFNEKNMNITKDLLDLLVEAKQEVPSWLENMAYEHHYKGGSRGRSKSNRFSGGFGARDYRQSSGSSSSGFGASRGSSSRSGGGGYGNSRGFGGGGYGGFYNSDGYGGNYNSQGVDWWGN
pKd: −log10 of the molar value.
Recorded Metric: pKd

Binder: dsRNA I (18-mer/42-mer) (dsRNA) RNA 1: ACCGCUGCCGUCGCUCCG RNA 2: UUUUUUUUUUUUUUUUUUUUUUUUCGGAGCGACGGCAGCGGU
Recorded Metric: pKd
Data Value: 6.05
